target or test system: Elastase (Pseudomonas aeruginosa (strain ATCC 15692 / PAO1 / 1C / PRS 101 / LMG12228), UniProt P14756)
Sequence (P14756 whole entry): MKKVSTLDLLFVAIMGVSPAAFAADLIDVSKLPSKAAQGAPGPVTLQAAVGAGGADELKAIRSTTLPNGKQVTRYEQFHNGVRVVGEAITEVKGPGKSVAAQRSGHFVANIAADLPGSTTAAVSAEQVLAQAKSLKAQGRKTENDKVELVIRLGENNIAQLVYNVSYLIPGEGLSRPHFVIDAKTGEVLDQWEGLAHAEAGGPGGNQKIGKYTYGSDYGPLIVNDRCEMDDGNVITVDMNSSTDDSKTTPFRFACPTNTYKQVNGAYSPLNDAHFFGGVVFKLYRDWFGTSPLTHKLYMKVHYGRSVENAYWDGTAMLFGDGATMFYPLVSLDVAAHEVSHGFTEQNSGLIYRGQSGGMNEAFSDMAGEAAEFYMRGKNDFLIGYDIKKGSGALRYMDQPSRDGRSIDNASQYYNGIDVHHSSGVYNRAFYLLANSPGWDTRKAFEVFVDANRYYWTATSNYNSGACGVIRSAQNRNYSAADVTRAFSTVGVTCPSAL
protocol summary: Prodrug activation assessed as LasB-mediated drug release in Pseudomonas aeruginosa PA14 cell supernatant in presence of human blood plasma and measured for 3 hrs by HPLC-MS analysis
Assay type: cell-free
assay readout: Drug metabolism

* CC(C)C[C@H](NC(=O)CNC(=O)[C@H](C)NC(=O)c1ccc(S[C@@H]2O[C@H](CO)[C@H](O)[C@H](O)[C@H]2O)cc1)C(=O)N[C@@H](C)C(=O)N1CCN(c2cc3c(cc2F)c(=O)c(C(=O)O)cn3C2CC2)CC1 | Metabolite_Notdetected
* CC(C)C[C@H](NC(=O)CNC(=O)[C@H](C)NC(=O)c1ccc(S(=O)(=O)NC[C@H]2O[C@@H](C)[C@@H](O)[C@@H](O)[C@@H]2O)cc1)C(=O)N[C@@H](C)C(=O)N[C@H]1CCN(c2cc3c(cc2F)c(=O)c(C(=O)O)cn3C2CC2)C1 | Metabolite_Detected
* CC(C)C[C@H](NC(=O)CNC(=O)[C@H](C)NC(=O)c1ccc(S[C@@H]2O[C@H](CO)[C@H](O)[C@H](O)[C@H]2O)cc1)C(=O)N[C@@H](C)C(=O)N[C@H]1CCN(c2cc3c(cc2F)c(=O)c(C(=O)O)cn3C2CC2)C1 | Metabolite_Detected
* CC(C)C[C@H](NC(=O)CNC(=O)[C@H](C)NC(=O)c1ccc(S(=O)(=O)NC[C@H]2O[C@@H](C)[C@@H](O)[C@@H](O)[C@@H]2O)cc1)C(=O)N[C@@H](C)C(=O)NC[C@@H]1CCN(c2cc3c(cc2F)c(=O)c(C(=O)O)cn3C2CC2)C1 | Metabolite_Detected
* CC(C)C[C@H](NC(=O)CNC(=O)[C@H](C)NC(=O)c1ccc(S[C@@H]2O[C@H](CO)[C@H](O)[C@H](O)[C@H]2O)cc1)C(=O)N[C@@H](C)C(=O)NC[C@@H]1CCN(c2cc3c(cc2F)c(=O)c(C(=O)O)cn3C2CC2)C1 | Metabolite_Detected
* CC(C)C[C@H](NC(=O)CNC(=O)[C@H](C)NC(=O)c1ccc(S(=O)(=O)NC[C@H]2O[C@@H](C)[C@@H](O)[C@@H](O)[C@@H]2O)cc1)C(=O)N[C@@H](C)C(=O)N1CCN(c2cc3c(cc2F)c(=O)c(C(=O)O)cn3C2CC2)CC1 | Metabolite_Notdetected

This collection of values is drawn from ChEMBL document CHEMBL5108061.
